Target: T1, his-tagged human BCMA protein (ACROBiosystems, catalog # BCA-H522y-100 ug) (human, UniProt Q02223 1-54)
T1 construct: limits of the bought construct are not otherwise stated; also called recombinant his-tagged human BCMA; not shown: his tag of the bought protein
T1 sequence: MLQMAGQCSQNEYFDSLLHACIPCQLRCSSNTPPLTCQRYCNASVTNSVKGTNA
Experiment: SPR (Biacore T200), antibody captured on anti-human Fc, his-tagged human BCMA as analyte; fit with ka1/kd1/ka2/kd2 (model not named)
Please go through the items and note down their ka1.
Give your result in M⁻¹ s⁻¹ as a bare value.

Lab note: measured ka1 of BCA7-2G2 antibody (antibody, V domains shown) VH: EVQLVESGGGLVKPGGSLRLSCAASGFTSSTAWMSWVRQAPGKGLEWVGRIKSKSDGGTTDYAAPVKGRFTISRDDSKNTLFLQMNSLKTEDTAVYYCAKGGGTYGYWGQGTTVTVSS VL: QSVLTQPASVSGSPGQSVTISCTGTSSSVGGRQYVSWYQQHPGKAPKLMIYDVSNRPSGVSNRFSGSKSGNTASLTISGLQAEDEADYYCGSYTSSGSYVFGTGTKLTVL was 32100

Lab note: measured ka1 of BCA7-2D8 antibody (antibody, V domains shown) VH: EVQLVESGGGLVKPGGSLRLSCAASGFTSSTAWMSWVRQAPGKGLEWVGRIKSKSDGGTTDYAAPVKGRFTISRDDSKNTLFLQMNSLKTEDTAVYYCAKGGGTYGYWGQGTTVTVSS VL: QSVLTQPASVSGSPGQSVTISCTGTSSSIGDSYYVSWYQQHPGKAPKLMIYDVSNRPSGVSNRFSGSKSGNTASLTISGLQAEDEADYYCGSYTSSGSYVFGTGTTLTVL was 2.43e+06

Lab note: measured ka1 of BCA7-2D11 antibody (antibody, V domains shown) VH: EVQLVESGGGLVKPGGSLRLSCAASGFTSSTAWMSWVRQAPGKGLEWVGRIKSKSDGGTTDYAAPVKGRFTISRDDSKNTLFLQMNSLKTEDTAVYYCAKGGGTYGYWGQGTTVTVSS VL: SYELTQPASVSGSPGQSVTISCTGTSSVVGGHDYVSWYQQHPGKAPKLMIYDVSNRPSGVSNRFSGSKSGNTASLTISGLQAEDEADYYCGSYTSSGSYVFGTGTKVTVL was 1.87e+06

Lab note: measured ka1 of BCA7-2E8 antibody (antibody, V domains shown) VH: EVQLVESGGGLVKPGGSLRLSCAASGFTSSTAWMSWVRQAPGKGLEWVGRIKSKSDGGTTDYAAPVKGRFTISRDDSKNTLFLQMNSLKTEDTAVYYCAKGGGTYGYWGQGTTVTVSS VL: QSVLTQPASVSGSPGQSVTISCTGTSSDVGGYNYVSWYQQHPGKAPKLMIYDVSNRPSGVSNRFSGSKSGNTASLTISGLQAEDEADYYCGSLRSNGDYVFGTGTTLTVL was 48700

Lab note: measured ka1 of BCA7-2E1 antibody (antibody, V domains shown, also called BCA-2E1) VH: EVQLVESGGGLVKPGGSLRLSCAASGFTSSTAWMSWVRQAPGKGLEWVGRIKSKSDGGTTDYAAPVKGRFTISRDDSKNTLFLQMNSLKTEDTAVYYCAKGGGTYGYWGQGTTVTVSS VL: QSALTQPASVSGSPGQSVTISCTGTSSDGGGHTYVSWYQQHPGKAPKLMIYDVSNRPSWVSNRFSGSKSGNTASLTISGLQAEDEADYYCGSYTSSGSYVFGTGTKLTVL was 2.51e+06

Lab note: measured ka1 of BCA7-2C5 antibody (antibody, V domains shown) VH: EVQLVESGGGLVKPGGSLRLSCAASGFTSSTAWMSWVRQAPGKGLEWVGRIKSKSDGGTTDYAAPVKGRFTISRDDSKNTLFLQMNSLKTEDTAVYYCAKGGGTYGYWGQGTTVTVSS VL: QSALTQPASVSGSPGQSVTISCTGTSSAHGGHYYVSWYQQHPGKAPKLMIYDVSNRPSGVSNRFSGSKSGNTASLTISGLQAEDEADYYCGSYTSSGSYVFGTGTKLTVL was 1.37e+06
